All values here come from patent US20230399287A1.

Overview of reported Clint across a group of compounds:
System: hepatocytes
Experiment: Hepatocyte stability assay (human)
Type: in vitro ADME
Conditions: 10 μM compound, 60 min
ASSAY_ENDPOINT: Clint (μL min^−1 10^−6 cells)

>>> obs_value("C=C(CC(=O)OC1(c2ccc(C(F)(F)F)c(F)c2)CCC1)C(=O)O")
11
>>> obs_value("C=C(C(=O)O)C1(C(=O)OC2(c3ccc(C(F)(F)F)cc3)CCC2)CC1")
18
>>> obs_value("C=C(CC(=O)O[C@H](c1ccc(C(F)(F)F)cc1)C(F)(F)F)C(=O)O")
26
>>> obs_value("C=C(CC(=O)OC1(c2ccc(C(F)(F)F)cn2)CC1)C(=O)O")
5
>>> obs_value("C=C(CC(=O)OC1(c2ccc(C#N)cc2)CCC1)C(=O)O")
4
>>> obs_value("C=C(CC(=O)OC1(c2ccc(C(F)(F)F)cc2)CC2(CC2)C1)C(=O)O")
6
>>> obs_value("C=C(CC(=O)OC(C)(C)c1ccc(C(F)(F)F)cc1)C(=O)O")
8
>>> obs_value("C=C(CC(=O)OC1(c2ccc(-c3ccc(C(F)(F)F)cc3)cc2)CCC1)C(=O)O")
238
>>> obs_value("C#CC(OC(=O)CC(=C)C(=O)O)c1ccc(C(F)(F)F)cc1 (single isomer, unassigned) [Example 38]")
7
>>> obs_value("C=C(CC(=O)OC1(c2ccc(C(F)F)cc2)CCC1)C(=O)O")
4
>>> obs_value("C=C(CC(=O)O[C@]1(c2ccc(C(F)(F)F)cc2)C[C@H](OC)C1)C(=O)O")
4
>>> obs_value("C=C(CC(=O)OCCCCCCCC)C(=O)O [4-octyl itaconate, reference compound]")
401
>>> obs_value("C=C(CC(=O)OC1(c2ccc(S(F)(F)(F)(F)F)cc2)CCC1)C(=O)O")
8
